Listed compounds paired with reported Ki
- Study Target: KAT7+BRPF1+EAF6+ING5 4 protein complex (Homo sapiens (Human))
- Assay Summary: KAT7 BRPF1 assay (SAMDI-MS acetylation of H3 1-21 peptide)
- Format: biochemical
- Test Context: Morrison equation fit; replicate number in parentheses
Just the number plus its unit, please.

Guide cases for Ki, answers given:
COc1cc2c(NS(=O)(=O)c3c(OC)cc(-c4ncc(C)cn4)cc3OC)noc2cc1Nc1cc(C2CC2)n[nH]1 [Example 213] | 1.7 nM
COc1cc2c(NS(=O)(=O)c3ccc(C)cc3OCC(F)F)noc2cc1Nc1cc(C(C)C)[nH]n1 [Example 62] | 38.1 nM

Could you now consider this next compound?
Prompt line: Any idea what its Ki is? The compound is CCOc1cc(C)ccc1S(=O)(=O)Nc1noc2cc(Nc3cc(C(C)C)[nH]n3)c(OC)cc12 [Example 78]
Response line: 40.2 nM
